- target_or_system: hMAO-B (Homo sapiens, UniProt P27338)
- Sequence (P27338 whole entry): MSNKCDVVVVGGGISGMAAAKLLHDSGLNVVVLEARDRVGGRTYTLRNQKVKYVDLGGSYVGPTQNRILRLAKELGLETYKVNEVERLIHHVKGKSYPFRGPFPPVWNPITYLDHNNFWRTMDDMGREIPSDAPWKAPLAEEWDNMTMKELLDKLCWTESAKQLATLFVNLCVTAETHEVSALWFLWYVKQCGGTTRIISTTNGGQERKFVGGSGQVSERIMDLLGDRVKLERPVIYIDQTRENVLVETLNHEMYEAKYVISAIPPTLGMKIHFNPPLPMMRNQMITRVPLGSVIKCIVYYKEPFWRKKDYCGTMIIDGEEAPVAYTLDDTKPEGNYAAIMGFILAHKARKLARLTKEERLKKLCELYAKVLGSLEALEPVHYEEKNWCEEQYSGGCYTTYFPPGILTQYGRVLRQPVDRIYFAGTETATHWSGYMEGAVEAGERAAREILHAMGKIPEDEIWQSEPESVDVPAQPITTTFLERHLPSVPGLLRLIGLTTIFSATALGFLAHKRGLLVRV
- procedure_details: Inhibition of human recombinant MAO B (Amplex Red assay)
measured_endpoint: IC50 (nM)

a = Cc1ccc(C2=NOC(c3ccc(Cl)cc3)C2)cc1 (centres unmarked)
b = Cc1ccc(C2=NO[C@@H](c3ccc(Cl)cc3)C2)cc1 [R-(−) EMAC II i]
Sorting ascending by IC50, which comes first: a or b ? Record your answer as the label of the chosen record.
b

* * *

- target_or_system: hMAO-B (Homo sapiens, UniProt P27338)
- procedure_details: Inhibition of human recombinant MAO B (Amplex Red assay)
- applied_conditions: read-out: MAO-B (IC50); Table 3; mean ± SEM from five experiments
measured_endpoint: IC50 (µM)

COc1ccc(C2CC(c3ccc(C)cc3)=NO2)cc1 (racemic) [EMAC II m]
0.45

a = Cc1ccc(C2=NOC(c3ccc(F)cc3)C2)cc1 (racemic) [EMAC II k]
b = Cc1ccc(C2=NOC(c3ccc(C)cc3)C2)cc1 (racemic) [EMAC II j]
c = Cc1ccc(C2=NOC(c3ccc(Cl)c(Cl)c3)C2)cc1 (racemic) [EMAC II l]
Please list these in order of increasing IC50. Thank you! List the labels according to the requested ordering.
c, b, a
